Test System: T1, human prolactin receptor (PRLR) (human, UniProt P16471 25-622)
T1 sequence: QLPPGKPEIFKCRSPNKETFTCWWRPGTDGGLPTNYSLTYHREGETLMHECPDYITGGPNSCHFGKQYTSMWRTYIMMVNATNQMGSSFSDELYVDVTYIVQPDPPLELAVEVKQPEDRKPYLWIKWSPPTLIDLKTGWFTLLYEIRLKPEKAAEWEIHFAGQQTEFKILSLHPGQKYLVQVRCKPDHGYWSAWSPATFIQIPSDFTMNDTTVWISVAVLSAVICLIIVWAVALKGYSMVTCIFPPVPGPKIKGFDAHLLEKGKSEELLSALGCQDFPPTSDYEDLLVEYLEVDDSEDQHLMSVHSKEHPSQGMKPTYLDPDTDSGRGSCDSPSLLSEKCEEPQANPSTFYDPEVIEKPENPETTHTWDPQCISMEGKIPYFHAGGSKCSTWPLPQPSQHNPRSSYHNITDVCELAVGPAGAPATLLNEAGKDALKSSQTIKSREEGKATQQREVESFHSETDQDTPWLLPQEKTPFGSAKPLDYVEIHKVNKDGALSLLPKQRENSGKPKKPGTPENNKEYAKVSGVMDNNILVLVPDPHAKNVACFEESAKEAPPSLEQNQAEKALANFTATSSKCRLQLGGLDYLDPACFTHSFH
Experiment Description: cell-based or functional assay
Recorded measurements of IC50, cell viability, T47D cells, one per entry

Binder	Reading Unit	IC50, cell viability, T47D cells
H1H6960N-DM1 (antibody, human IgG1, V domains shown, DM1 conjugated through SMCC linker; attachment residues not stated) VH: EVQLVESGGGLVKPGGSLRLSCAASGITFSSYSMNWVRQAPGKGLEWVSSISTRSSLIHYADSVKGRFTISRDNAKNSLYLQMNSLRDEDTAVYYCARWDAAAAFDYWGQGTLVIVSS VL: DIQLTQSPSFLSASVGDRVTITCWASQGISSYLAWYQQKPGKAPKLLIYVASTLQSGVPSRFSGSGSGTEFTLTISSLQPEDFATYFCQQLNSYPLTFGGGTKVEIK	nM	5.1
H1H6975N-DM1 (antibody, human IgG1, V domains shown, DM1 conjugated through SMCC linker; attachment residues not stated) VH: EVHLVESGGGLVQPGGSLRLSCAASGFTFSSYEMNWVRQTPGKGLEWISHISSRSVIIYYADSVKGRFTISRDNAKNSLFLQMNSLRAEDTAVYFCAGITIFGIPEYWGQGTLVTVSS VL: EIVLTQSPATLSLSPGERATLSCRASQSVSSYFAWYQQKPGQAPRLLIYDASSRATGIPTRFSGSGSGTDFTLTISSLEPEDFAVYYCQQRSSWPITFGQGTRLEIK	nM	6.9
H1H6803P-DM1 (antibody, human IgG1, V domains shown, DM1 conjugated through SMCC linker; attachment residues not stated) VH: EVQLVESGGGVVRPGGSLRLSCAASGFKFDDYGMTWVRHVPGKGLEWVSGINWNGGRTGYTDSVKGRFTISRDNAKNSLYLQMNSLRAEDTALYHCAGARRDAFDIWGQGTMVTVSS VL: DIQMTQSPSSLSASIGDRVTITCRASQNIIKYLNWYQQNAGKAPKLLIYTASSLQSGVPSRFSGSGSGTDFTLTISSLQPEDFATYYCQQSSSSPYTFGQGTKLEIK	nM	8.61
H1H6762P-DM1 (antibody, human IgG1, V domains shown, DM1 conjugated through SMCC linker; attachment residues not stated) VH: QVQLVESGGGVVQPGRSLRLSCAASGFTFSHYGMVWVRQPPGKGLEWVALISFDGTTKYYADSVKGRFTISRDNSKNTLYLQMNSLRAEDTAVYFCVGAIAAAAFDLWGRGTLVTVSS VL: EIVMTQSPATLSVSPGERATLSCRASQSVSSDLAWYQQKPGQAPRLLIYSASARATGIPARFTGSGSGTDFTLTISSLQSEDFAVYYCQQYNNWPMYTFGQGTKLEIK	nM	12.6
H1H6959N2-DM1 (antibody, human IgG1, V domains shown, DM1 conjugated through SMCC linker; attachment residues not stated) VH: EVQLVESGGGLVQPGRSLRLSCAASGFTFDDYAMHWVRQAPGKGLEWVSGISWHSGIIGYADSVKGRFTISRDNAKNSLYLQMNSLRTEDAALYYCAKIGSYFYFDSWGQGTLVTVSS VL: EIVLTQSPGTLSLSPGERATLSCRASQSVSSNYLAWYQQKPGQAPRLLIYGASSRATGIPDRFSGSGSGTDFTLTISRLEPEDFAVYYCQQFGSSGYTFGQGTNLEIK	nM	48.9

The measured values listed here are drawn from patent US20180185504A1.
